Reported GI50 by item:
# Test system: SR leukemia
# Assay Info: NCI tumour cell line growth inhibition, 48 h

Worked examples, 2 molecules total:
{"columns": ["Sample Smiles", "Measured Value"],
 "data": [
  ["Cn1ccnc1C(=O)/C=C/c1ccc(C(=O)Nc2ccccc2F)cc1", "304 nM"],
  ["CCC(=O)Oc1cc(/C=C/C(=O)O[C@H]2C[C@H]3CN4CCc5c([nH]c6cc(OC)ccc56)[C@@H]4C[C@@H]3[C@@H](C(=O)OC)[C@@H]2OC)ccc1OC", "2270 nM"]
]}

// switching to the query molecule
Can you look up the measured GI50 of "Cc1c(-c2ccc(O)c(O)c2)oc(=O)c2c(O)cc(O)cc12" for me? 4520 nM

====

# Tested on: A549 NSCLC
# Assay Info: NCI tumour cell line growth inhibition, 48 h
Assay Endpoint: TGI

# annotated cases, reported TGI shown
{"columns": ["Compound", "System", "TGI"],
 "data": [
  ["C=C1C(=O)C2=C[C@H]1C[C@H](O)C(=O)[C@]1(C)CCCC(C)(C)[C@H]1C[C@H]2O", "A549 NSCLC", "2.81 µM"],
  ["CC1(C)CSCC(C)(C)C(=N/N)/C1=N\\N", "A549 NSCLC", "> 100 µM"],
  ["CO/N=C(\\COc1ccc2c(=O)cc(-c3ccccc3)oc2c1)c1ccc(F)cc1", "A549 NSCLC", "> 100 µM"],
  ["NCc1ccc(O)c(O)c1", "A549 NSCLC", "> 100 µM"],
  ["NC(=O)[C@@H](CCC(F)(F)F)N(Cc1ccc(-c2ncon2)cc1F)S(=O)(=O)c1ccc(Cl)cc1", "A549 NSCLC", "> 100 µM"],
  ["C=C(C)C(=O)OC1C[C@H](COC(C)=O)C2CC=C(C)C2C2OC(=O)C(=C)[C@H]12 (stereo not given in full)", "A549 NSCLC", "34.2 µM"]
]}

Could you share which TGI value was measured for C=C1C[C@H](O)[C@H]2C(C[Se]c3ccccc3)C(=O)O[C@@H]2[C@H]2[C@H](C)C(O)C[C@@H]12 (stereo not given in full) ? > 100 µM

// lookup TGI for "CO[C@]12C#CC=CC#C[C@@H](O)[C@]3(CCC1)O[C@@]23c1cccc(O)c1" > 100 µM

For the compound "CC(C)=NN/C(=N\S(=O)(=O)c1cc2ccccc2s1)Nc1ccc(Cl)cc1" , what TGI is on record? > 100 µM

Look up TGI: CCOC(=O)C1N(S(=O)(=O)c2ccc(C)cc2)CCC12C(c1ccc(OC)c(OC)c1)=Nc1ccccc12 (stereo not given) > 100 µM

====

# Tested on: CCRF-CEM leukemia
# Assay Info: NCI tumour cell line growth inhibition, 48 h; in the data active = GI50 below about 0.43 µM; inactive = the rest
Respond with a class label; see Y = active, N = inactive

Some solved entries appear below for comparison.
{"columns": ["Molecule", "Class"],
 "data": [
  ["COc1ccc(C(=O)C2C(C#N)C(C#N)C3C=Cc4ccccc4N32)cc1 (stereo unspecified)", "N"],
  ["COc1ccc(OC)c(Nc2nc3ccccc3c3c2-c2ccc(OC)cc2C3=O)c1", "N"],
  ["CC12CC[C@@H]3c4cc5c(cc4CC[C@H]3[C@@H]1CCC2O)oc1cc(F)ccc15 (stereo partly specified)", "N"],
  ["CC1=C2[C@H]3OC(=O)[C@@H](C)[C@@H]3CC[C@@]2(C)C=CC1=O", "N"],
  ["CCCCCC/C=C\\CCCCCCCCCc1cc(O)cc(OC)c1O", "Y"]
]}

Okay, next one:
Recorded test outcome, item "NC(=O)[C@@H](CCC(F)(F)F)N(Cc1ccc(-c2ncon2)cc1F)S(=O)(=O)c1ccc(Cl)cc1" N
